Assign Emax to each entry below.
- System tested: F508delCFTR (Homo sapiens, UniProt P13569, DEL508-508)
- Construct: expressed in transfected cells; host or cells: CFBE41o- human lung-derived epithelial cells (CFBE4lo-F508delCFTR-HRP), doxycycline-inducible
- Sequence (P13569 with tags, fused parts or gaps DEL508-508): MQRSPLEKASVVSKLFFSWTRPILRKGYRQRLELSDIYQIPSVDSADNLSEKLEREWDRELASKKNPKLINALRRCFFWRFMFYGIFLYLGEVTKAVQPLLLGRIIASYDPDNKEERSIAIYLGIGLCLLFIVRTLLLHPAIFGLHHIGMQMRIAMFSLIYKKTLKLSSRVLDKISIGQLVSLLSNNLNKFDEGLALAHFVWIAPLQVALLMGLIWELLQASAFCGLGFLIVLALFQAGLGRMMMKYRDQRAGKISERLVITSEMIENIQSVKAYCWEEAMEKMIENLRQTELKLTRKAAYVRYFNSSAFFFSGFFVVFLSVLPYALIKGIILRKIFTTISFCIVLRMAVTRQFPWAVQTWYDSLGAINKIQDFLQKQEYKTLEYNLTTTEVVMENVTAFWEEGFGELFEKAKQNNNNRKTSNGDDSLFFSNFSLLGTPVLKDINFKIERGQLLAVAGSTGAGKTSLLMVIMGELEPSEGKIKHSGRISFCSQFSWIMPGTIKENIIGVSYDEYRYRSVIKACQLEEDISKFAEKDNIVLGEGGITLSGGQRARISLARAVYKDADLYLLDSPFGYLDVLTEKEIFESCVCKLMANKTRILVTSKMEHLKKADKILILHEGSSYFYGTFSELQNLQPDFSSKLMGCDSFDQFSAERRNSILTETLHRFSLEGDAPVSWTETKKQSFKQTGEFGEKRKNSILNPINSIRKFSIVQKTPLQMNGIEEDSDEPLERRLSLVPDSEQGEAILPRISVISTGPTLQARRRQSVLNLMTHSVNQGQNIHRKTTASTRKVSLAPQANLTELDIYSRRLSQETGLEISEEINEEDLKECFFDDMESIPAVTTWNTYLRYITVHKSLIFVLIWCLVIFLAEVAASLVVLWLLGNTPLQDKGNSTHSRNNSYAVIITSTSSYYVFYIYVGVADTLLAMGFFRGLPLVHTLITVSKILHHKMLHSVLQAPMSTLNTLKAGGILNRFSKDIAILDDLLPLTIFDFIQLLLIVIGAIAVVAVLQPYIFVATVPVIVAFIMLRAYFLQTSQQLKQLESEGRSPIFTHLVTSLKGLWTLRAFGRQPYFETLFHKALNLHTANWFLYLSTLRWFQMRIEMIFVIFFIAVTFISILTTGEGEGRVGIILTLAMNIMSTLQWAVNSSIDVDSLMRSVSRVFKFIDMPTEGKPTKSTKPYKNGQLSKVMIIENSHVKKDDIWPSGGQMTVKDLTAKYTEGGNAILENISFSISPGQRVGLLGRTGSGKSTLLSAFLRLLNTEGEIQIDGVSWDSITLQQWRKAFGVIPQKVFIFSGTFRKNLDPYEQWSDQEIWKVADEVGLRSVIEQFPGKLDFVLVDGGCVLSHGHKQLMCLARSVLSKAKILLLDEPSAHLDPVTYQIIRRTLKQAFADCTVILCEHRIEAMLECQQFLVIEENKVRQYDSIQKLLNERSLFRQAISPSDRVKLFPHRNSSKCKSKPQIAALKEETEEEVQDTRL
- Test method notes: Cell Surface Expression-Horse Radish Peroxidase (CSE-HRP) Assay;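 also: percent of the 2 µM on-plate positive control corrector response above DMSO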
- Format: cell-based
- Assay setup: test compound without co-corrector; maximum at any tested concentration, normalized to on-plate positive control; read-out: Maximum % activity (without co-corrector)

Which measured Emax value corresponds to "COc1ccc(C2(C)CCC2)cc1CN[C@H]1[C@H](C(C)(C)C)[C@@H](C(=O)O)N(C(=O)[C@@H]2CCCO2)[C@H]1c1ccccc1C(C)C" ?
> 200%

Also, "COc1ccc(C(F)(F)F)cc1CN[C@@H]1[C@@H](C(C)(C)C)[C@H](C(=O)O)N(C(=O)[C@](OC)(c2ccccc2)C(F)(F)F)[C@@H]1c1ccccc1" please.
< 100%

Can you check "COc1cc(C(F)(F)F)ccc1CN[C@H]1[C@H](C(C)(C)C)[C@@H](C(=O)O)N(C(=O)[C@H]2CCCCO2)[C@H]1c1cccnc1N(C)C" next?
< 100%

Would you mind doing COc1ccc(C(C)(C)C)cc1CN[C@H]1[C@H](C(C)(C)C)[C@@H](C(=O)O)N(C(=O)C2CC2c2ccncc2)[C@H]1c1ccccc1 (stereo partly shown) as well?
100 to 200%
